Biological target: human factor D (Homo sapiens (Human), UniProt P00746)
Sequence (P00746 26-253): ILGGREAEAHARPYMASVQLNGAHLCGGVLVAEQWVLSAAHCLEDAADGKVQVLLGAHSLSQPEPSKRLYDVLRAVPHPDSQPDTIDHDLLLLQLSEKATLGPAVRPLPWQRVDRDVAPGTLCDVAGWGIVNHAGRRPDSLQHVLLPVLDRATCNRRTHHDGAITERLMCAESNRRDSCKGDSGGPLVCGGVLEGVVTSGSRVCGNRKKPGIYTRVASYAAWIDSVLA
Assay: biochemical
Type: biochemical
Conditions: Factor D inhibition data using Method 1; recombinant human factor D 10 nM, substrate Z-Lys-thiobenzyl, fluorescence; read-out: IC50
# reported IC50; entries follow
Unit nM implied. Number only.

Reference set, count: 2
>>> measured_result("CC(=O)c1nn(CC(=O)N2[C@@H]3C[C@@H]3C[C@H]2C(=O)N[C@H](C)[C@H]2CC2(Cl)Cl)c2ccc(OCc3ncn(C)n3)cc12")
3
>>> measured_result("NC(=O)c1nn(CC(=O)N2[C@@H]3C[C@@H]3C[C@H]2C(=O)NC[C@H]2CC2(Cl)Cl)c2ccc(OCc3ncccn3)cc12")
41

Now consider the entry below.
Give IC50 (human factor D (Homo sapiens (Human), UniProt P00746)) of the following compound: CC(=O)c1nn(CC(=O)N2[C@@H]3C[C@@H]3C[C@H]2C(=O)NCC2CCCC2(C)C)c2cnccc12 (single isomer, unassigned; dia 1) [Example 19]
1610
